- Protocol: Effect on Wnt signaling pathway in human SW480 cells harbouring TCF/LEF luciferase reporter gene and SP5-Luc reporter gene incubated for 36 to 48 hrs by luminescence assay
- Type: cell-based
Each record's class is read off its EC50 using these ranges: low group (below 20 nM), middle group (20 nM to below 400 nM), high group (400 nM or more)

# Smiles text, Assigned category
measured = [
    ("CC(C)OC(=O)N1CCC(n2cc(C(=O)Nc3cc4cc(-c5cnn(C)c5)ccc4cn3)cn2)CC1", "middle group"),
    ("CCN(C)Cc1cncc(-c2cnc3[nH]nc(-c4nc5c(-c6cccc(F)c6)cncc5[nH]4)c3c2)c1", "high group"),
    ("O=C(Nc1cc2cc(-c3cncc(N[C@H]4CCNC[C@@H]4F)n3)ccc2cn1)C1CC1", "low group"),
    ("COc1cncc(-c2cc3c(-c4nc5c(-c6cccc(F)c6)cncc5[nH]4)n[nH]c3cn2)c1", "middle group"),
    ("COc1cccc(-c2nccc3[nH]c(-c4n[nH]c5ccc(-c6cccnc6)nc45)nc23)c1", "middle group"),
    ("CN(C)CCNc1cc(F)cc(-c2cccc3[nH]c(-c4n[nH]c5ccc(-c6cncnc6)nc45)cc23)c1", "high group"),
    ("CN1CCN(c2cncc3[nH]c(-c4n[nH]c5ccc(-c6cncc(N)c6)nc45)nc23)CC1", "high group"),
    ("COc1ccc(NC(=O)c2n[nH]c3ccc(-c4cncc(CO)c4)cc23)cn1", "middle group"),
    ("CN1CCN(c2cncc3[nH]c(-c4n[nH]c5ccc(-c6cncc(N)c6)cc45)cc23)CC1", "high group"),
    ("CC(C)(C)C(=O)Nc1cncc(-c2ccc3[nH]nc(-c4nc5c(-c6ccc(F)s6)ccnc5[nH]4)c3c2)c1", "low group"),
    ("Fc1cccc(-c2nccc3[nH]c(-c4n[nH]c5ccc(-c6cncc(CN7CCCCC7)c6)nc45)cc23)c1", "high group"),
    ("Cc1ccc(-c2nccc3[nH]c(-c4n[nH]c5ccc(-c6cncc(N)c6)cc45)nc23)s1", "low group"),
    ("CN1CCN(c2nccc3[nH]c(-c4n[nH]c5ncc(-c6cncc(NC(=O)C7CCCC7)c6)cc45)cc23)CC1", "high group"),
    ("CC(C)(C)CC(=O)Nc1cncc(-c2ccc3[nH]nc(-c4cc5c(-c6ccoc6)ccnc5[nH]4)c3c2)c1", "high group"),
    ("O=C(Nc1ccc(CN2CCCC2)cc1)c1n[nH]c2ccc(-c3cnccn3)cc12", "high group"),
    ("CC(C)Nc1cncc(-c2cnc3[nH]nc(-c4cc5c(N6CCCCC6)nccc5[nH]4)c3c2)c1", "high group"),
    ("CN(C)Cc1cncc(-c2cnc3[nH]nc(-c4nc5c(-c6cccc(F)c6)cncc5[nH]4)c3c2)c1", "low group"),
    ("CCC(=O)Nc1cncc(-c2cnc3[nH]nc(-c4nc5c(-c6ccc(F)cc6)cncc5[nH]4)c3c2)c1", "low group"),
    ("CN(C)C(=O)Nc1cncc(-c2ccc3[nH]nc(C(=O)Nc4cccnc4)c3c2)c1", "middle group"),
    ("CC(C)CC(=O)Nc1ccncc1NC(=O)c1n[nH]c2ccc(-c3cncc(CN4CCCCC4)c3)cc12", "middle group"),
    ("CN1CCN(c2ccnc3[nH]c(-c4n[nH]c5cnc(-c6cncc(CNCC7CCCC7)c6)cc45)cc23)CC1", "high group"),
    ("Nc1cncc(-c2ccc3[nH]nc(-c4nc5c(-c6ccccc6F)ccnc5[nH]4)c3c2)c1", "low group"),
    ("CN(C)CCNc1cc(F)cc(-c2cccc3[nH]c(-c4n[nH]c5ncc(-c6ccncc6)cc45)cc23)c1", "high group"),
    ("Cc1ncc(-c2cnc3[nH]nc(-c4cc5c(-c6ccncc6)cncc5[nH]4)c3c2)n1C", "high group"),
    ("Cn1cc(-c2cc3c(-c4nc5c(-c6cccc(F)c6)nccc5[nH]4)n[nH]c3cn2)cn1", "low group"),
    ("O=C(Nc1ccnc(C(F)(F)F)c1)c1n[nH]c2ccc(-c3cncc(CN4CCCCC4)c3)cc12", "middle group"),
    ("CC(C)CC(=O)Nc1cncc(-c2ccc3[nH]nc(-c4nc5c(-c6cccc(F)c6)ccnc5[nH]4)c3c2)c1", "low group"),
    ("c1cc(-c2ccnc3[nH]c(-c4n[nH]c5ccc(-c6cncnc6)cc45)cc23)ccn1", "high group"),
    ("Cc1ncc(C(=O)Nc2cc3nc(-c4cnc(C)n4C)ccc3cn2)s1", "middle group"),
    ("CN(C)Cc1cncc(-c2ccc3[nH]nc(-c4cc5c(-c6cccc(F)c6)cncc5[nH]4)c3c2)c1", "high group"),
    ("Cc1cn(-c2cncc3[nH]c(-c4n[nH]c5ccc(-c6cncc(NC(=O)C7CCC7)c6)nc45)nc23)cn1", "high group"),
    ("O=C(Nc1cnccc1NC(=O)C1CC1)c1n[nH]c2ccc(-c3cccnc3)cc12", "middle group"),
    ("CC1CCN(Cc2cncc(-c3ccc4[nH]nc(C(=O)Nc5cccnc5)c4c3)c2)CC1", "low group"),
    ("Cc1cn(-c2nccc3[nH]c(-c4n[nH]c5ccc(-c6cncc(NC(=O)C(C)(C)C)c6)nc45)nc23)cn1", "high group"),
    ("O=C(Nc1cncc(-c2cnc3[nH]nc(-c4cc5cccnc5[nH]4)c3c2)c1)C1CCCCC1", "high group"),
]
